Species: Homo sapiens
TEST METHOD NOTES: Antioxidant activity was determined by measuring the produced thiobarbituric acid reactive substance
Type: functional
The entries below come with measured Activity values attached.
PARAMETER MEASURED: Activity

In [3]: df
Out[3]:
                        structure_as_smiles                   meas_value
0  COC(=O)[C@H](Cc1ccccc1)NC(=O)/C=C/c1ccc(O)cc1    269 nmol of MDA/mg of LDL
1  O=C(CCc1ccc(O)c(O)c1)N[C@@H](CC(=O)OCc1ccccc1)C(=O)OCc1ccccc1   32.1 nmol of MDA/mg of LDL
2  CC(C)(Sc1cc(C(C)(C)C)c(O)c(C(C)(C)C)c1)Sc1cc(C(C)(C)C)c(O)c(C(C)(C)C)c1  263.1 nmol of MDA/mg of LDL
3  COC(=O)[C@H](C)NC(=O)/C=C/c1ccc(O)c(O)c1   91.5 nmol of MDA/mg of LDL

Cited source for all entries: ChEMBL document CHEMBL1137834
